Tested on: DLD-1
experimental protocol: Cytotoxicity against human DLD1 cells after 96 hrs by sulforhodamine B assay
Format: functional, cell-based
experimental readout: IC50
Quick note: unit goes after the number.

Below, 4 compounds whose answers are already recorded.
[
  {
    "compound": "COC(=O)[C@@]1(C)CC[C@]2(C)CC[C@]3(C)C(=CC(=O)[C@@H]4[C@@]5(C)CC[C@H](OC(=O)CCl)C(C)(C)[C@@H]5CC[C@]43C)[C@@H]2C1",
    "target system": "DLD-1",
    "test result": "6.13 µmol"
  },
  {
    "compound": "COC(=O)[C@@]1(C)CC[C@]2(C)CC[C@]3(C)C(=CC(=O)[C@@H]4[C@@]5(C)CC[C@H](OC(=O)CNCCCCCCCCCCN)C(C)(C)[C@@H]5CC[C@]43C)[C@@H]2C1",
    "target system": "DLD-1",
    "test result": "5.53 µmol"
  },
  {
    "compound": "COC(=O)[C@@]1(C)CC[C@]2(C)CC[C@]3(C)C(=CC(=O)[C@@H]4[C@@]5(C)CC[C@H](OC(=O)CNCCCCN)C(C)(C)[C@@H]5CC[C@]43C)[C@@H]2C1",
    "target system": "DLD-1",
    "test result": "2.66 µmol"
  },
  {
    "compound": "CC1(C)[C@@H](O)CC[C@]2(C)[C@H]3C(=O)C=C4[C@@H]5C[C@@](C)(C(=O)O)CC[C@]5(C)CC[C@@]4(C)[C@]3(C)CC[C@@H]12 [ENOXOLONE]",
    "target system": "DLD-1",
    "test result": "81.21 µmol"
  }
]

INPUT: Query for DLD-1: what IC50 does the record show for "COC(=O)[C@@]1(C)CC[C@]2(C)CC[C@]3(C)C(=CC(=O)[C@@H]4[C@@]5(C)CC[C@H](OC(=O)CNCCCCCCCCCN)C(C)(C)[C@@H]5CC[C@]43C)[C@@H]2C1" ?
OUTPUT: 4.5 µmol

* * *

Provide the recorded IC50 for the entries that follow.
Test system: 8505C
experimental protocol: Cytotoxicity against human 8505C cells after 96 hrs by sulforhodamine B assay
Assay type: functional, cell-based
Give bare numbers, in µmol.

Below, 2 molecules whose answers are already recorded.
[
  {
    "entry smiles": "COC(=O)[C@@]1(C)CC[C@]2(C)CC[C@]3(C)C(=CC(=O)[C@@H]4[C@@]5(C)CC[C@H](OC(=O)CNCCCCN)C(C)(C)[C@@H]5CC[C@]43C)[C@@H]2C1",
    "result unit": "µmol",
    "IC50": 2.12
  },
  {
    "entry smiles": "COC(=O)[C@@]1(C)CC[C@]2(C)CC[C@]3(C)C(=CC(=O)[C@@H]4[C@@]5(C)CC[C@H](OC(=O)CNCCCCCCN)C(C)(C)[C@@H]5CC[C@]43C)[C@@H]2C1",
    "result unit": "µmol",
    "IC50": 1.68
  }
]

Each of the following entries comes with a recorded value; kindly state IC50 for each.
1. COC(=O)[C@@]1(C)CC[C@]2(C)CC[C@]3(C)C(=CC(=O)[C@@H]4[C@@]5(C)CC[C@H](O)C(C)(C)[C@@H]5CC[C@]43C)[C@@H]2C1
2. CC1(C)[C@@H](OC(=O)CCl)CC[C@]2(C)[C@H]3C(=O)C=C4[C@@H]5C[C@@](C)(C(=O)O)CC[C@]5(C)CC[C@@]4(C)[C@]3(C)CC[C@@H]12
3. COC(=O)[C@@]1(C)CC[C@]2(C)CC[C@]3(C)C(=CC(=O)[C@@H]4[C@@]5(C)CC[C@H](OC(=O)CNCCCCCCCN)C(C)(C)[C@@H]5CC[C@]43C)[C@@H]2C1
4. COC(=O)[C@@]1(C)CC[C@]2(C)CC[C@]3(C)C(=CC(=O)[C@@H]4[C@@]5(C)CC[C@H](OC(=O)CNCCCCCN)C(C)(C)[C@@H]5CC[C@]43C)[C@@H]2C1
5. COC(=O)[C@@]1(C)CC[C@]2(C)CC[C@]3(C)C(=CC(=O)[C@@H]4[C@@]5(C)CC[C@H](OC(=O)CNCCCCCCCCCN)C(C)(C)[C@@H]5CC[C@]43C)[C@@H]2C1
6. CC1(C)[C@@H](O)CC[C@]2(C)[C@H]3C(=O)C=C4[C@@H]5C[C@@](C)(C(=O)O)CC[C@]5(C)CC[C@@]4(C)[C@]3(C)CC[C@@H]12
7. COC(=O)[C@@]1(C)CC[C@]2(C)CC[C@]3(C)C(=CC(=O)[C@@H]4[C@@]5(C)CC[C@H](OC(=O)CNCCCN)C(C)(C)[C@@H]5CC[C@]43C)[C@@H]2C1

OUTPUT:
1: 26.07; 2: 26.08; 3: 2.13; 4: 1.78; 5: 6.18; 6: 86.5; 7: 3.37

* * *

Test system: DLD-1
experimental protocol: Cytotoxicity against human DLD1 cells after 96 hrs by sulforhodamine B assay
Assay type: functional, cell-based
experimental readout: IC50 (µmol)
One number for each entry, in µmol.

Below, 6 compounds whose answers are already recorded.
[
  {
    "entry smiles": "COC(=O)[C@@]1(C)CC[C@]2(C)CC[C@]3(C)C(=CC(=O)[C@@H]4[C@@]5(C)CC[C@H](OC(=O)CNCCCCCCCN)C(C)(C)[C@@H]5CC[C@]43C)[C@@H]2C1",
    "target system": "DLD-1",
    "result unit": "µmol",
    "IC50": 1.25
  },
  {
    "entry smiles": "COC(=O)[C@@]1(C)CC[C@]2(C)CC[C@]3(C)C(=CC(=O)[C@@H]4[C@@]5(C)CC[C@H](OC(=O)CNCCCCCCN)C(C)(C)[C@@H]5CC[C@]43C)[C@@H]2C1",
    "target system": "DLD-1",
    "result unit": "µmol",
    "IC50": 0.91
  },
  {
    "entry smiles": "COC(=O)[C@@]1(C)CC[C@]2(C)CC[C@]3(C)C(=CC(=O)[C@@H]4[C@@]5(C)CC[C@H](OC(=O)CNCCCN)C(C)(C)[C@@H]5CC[C@]43C)[C@@H]2C1",
    "target system": "DLD-1",
    "result unit": "µmol",
    "IC50": 4.39
  },
  {
    "entry smiles": "COC(=O)[C@@]1(C)CC[C@]2(C)CC[C@]3(C)C(=CC(=O)[C@@H]4[C@@]5(C)CC[C@H](OC(=O)CNCCCCCN)C(C)(C)[C@@H]5CC[C@]43C)[C@@H]2C1",
    "target system": "DLD-1",
    "result unit": "µmol",
    "IC50": 2.4
  },
  {
    "entry smiles": "COC(=O)[C@@]1(C)CC[C@]2(C)CC[C@]3(C)C(=CC(=O)[C@@H]4[C@@]5(C)CC[C@H](O)C(C)(C)[C@@H]5CC[C@]43C)[C@@H]2C1",
    "target system": "DLD-1",
    "result unit": "µmol",
    "IC50": 26.12
  },
  {
    "entry smiles": "CC1(C)[C@@H](OC(=O)CCl)CC[C@]2(C)[C@H]3C(=O)C=C4[C@@H]5C[C@@](C)(C(=O)O)CC[C@]5(C)CC[C@@]4(C)[C@]3(C)CC[C@@H]12",
    "target system": "DLD-1",
    "result unit": "µmol",
    "IC50": 17.36
  }
]

INPUT: Query for DLD-1: what IC50 does the record show for "COC(=O)[C@@]1(C)CC[C@]2(C)CC[C@]3(C)C(=CC(=O)[C@@H]4[C@@]5(C)CC[C@H](OC(=O)CNCCCCCCCCN)C(C)(C)[C@@H]5CC[C@]43C)[C@@H]2C1" ?
OUTPUT: 3.96

* * *

Provide the recorded IC50 for the entries that follow.
Tested on: SW-1736
experimental protocol: Cytotoxicity against human SW1736 cells after 96 hrs by sulforhodamine B assay
Type: functional, cell-based
Give bare numbers, in µmol.

Below, 4 compounds whose answers are already recorded.
[
  {
    "compound": "COC(=O)[C@@]1(C)CC[C@]2(C)CC[C@]3(C)C(=CC(=O)[C@@H]4[C@@]5(C)CC[C@H](OC(=O)CNCCCCCCCCN)C(C)(C)[C@@H]5CC[C@]43C)[C@@H]2C1",
    "experimental readout": "IC50",
    "result unit": "µmol",
    "test result": 4.09
  },
  {
    "compound": "COC(=O)[C@@]1(C)CC[C@]2(C)CC[C@]3(C)C(=CC(=O)[C@@H]4[C@@]5(C)CC[C@H](OC(=O)CNCCCCN)C(C)(C)[C@@H]5CC[C@]43C)[C@@H]2C1",
    "experimental readout": "IC50",
    "result unit": "µmol",
    "test result": 3.3
  },
  {
    "compound": "COC(=O)[C@@]1(C)CC[C@]2(C)CC[C@]3(C)C(=CC(=O)[C@@H]4[C@@]5(C)CC[C@H](OC(=O)CNCCCCCCCN)C(C)(C)[C@@H]5CC[C@]43C)[C@@H]2C1",
    "experimental readout": "IC50",
    "result unit": "µmol",
    "test result": 2.24
  },
  {
    "compound": "COC(=O)[C@@]1(C)CC[C@]2(C)CC[C@]3(C)C(=CC(=O)[C@@H]4[C@@]5(C)CC[C@H](OC(=O)CNCCCCCCN)C(C)(C)[C@@H]5CC[C@]43C)[C@@H]2C1",
    "experimental readout": "IC50",
    "result unit": "µmol",
    "test result": 1.61
  }
]

Now for a further compound.
INPUT: So what does the record say about IC50 for CC1(C)[C@@H](O)CC[C@]2(C)[C@H]3C(=O)C=C4[C@@H]5C[C@@](C)(C(=O)O)CC[C@]5(C)CC[C@@]4(C)[C@]3(C)CC[C@@H]12 [ENOXOLONE] ?
OUTPUT: 76.93
